measurement.description: Pharmacokinetics in ICR mice after intravenous and intragastric administration
Assay type: in vivo
condition.description: male, ICR, mouse, plasma, iv, 2 mg/kg, ICR mice, IV 2 mg/kg, individual animal; read-out: t1/2 (converted)
I'd appreciate it if you could supply half-life values for the items below.
Your answer is read as h, so omit the unit and give the number.

## Input Given COc1ccc(-c2nc3c(n2C(C)C)[C@@]2(C(=O)Nc4cc(Cl)ccc42)N(c2cc(Cl)cnc2C)C3=O)c(OC)c1 , state its recorded half-life.
## Output 1

## Input Here is the next compound: CCOc1cc(OC)c(-c2nc3c(n2C(C)C)[C@@]2(C(=O)Nc4cc(Cl)ccc42)N(c2cc(Cl)ccc2C)C3=O)cn1
## Output 1.39

## Input Try the compound COc1ncc(-c2nc3c(n2C(C)C)[C@@]2(C(=O)Nc4cc(Cl)ccc42)N(c2cc(Cl)ccc2F)C3=O)c(OC)n1
## Output 1.79

## Input Now consider COc1ncc(-c2nc3c(n2C(C)C)[C@@]2(C(=O)Nc4cc(Cl)ccc42)N(c2cc(F)cc(Cl)c2)C3=O)c(OC)n1 and answer again.
## Output 1.05

## Input What do you have for COc1cc(OC)c(-c2nc3c(n2C(C)C)[C@@]2(C(=O)Nc4cc(Cl)ccc42)N(c2cc(Cl)cnc2C)C3=O)cn1 ?
## Output 0.76

## Input Follow-up entry: COc1cc(C(C)C)ccc1-c1nc2c(n1C(C)C)[C@@]1(C(=O)Nc3cc(Cl)ccc31)N(c1cc(Cl)ccc1C)C2=O
## Output 1.44

----------
measurement.description: Pharmacokinetics in ICR mice after intravenous and intragastric administration
Assay type: in vivo
condition.description: male, ICR, mouse, plasma, iv, 2 mg/kg, IV 2 mg/kg, ICR mice, individual animal; read-out: AUC(0-t)
measured.endpoint: log10 of AUC(0-t) (log10 of the value in ng·h/mL)
Kindly note that the scale is log10 and the underlying AUC(0-t) is in ng·h/mL.

## Input // returns reported log10 of AUC(0-t) for input COc1ncc(-c2nc3c(n2C(C)C)[C@H](c2ccc(Cl)cc2)N(c2cc(Cl)cn(C)c2=O)C3=O)c(OC)n1 [HDM201, reference compound]
## Output 2.76

## Input What about COc1cc(OC)c(-c2nc3c(n2C(C)C)[C@@]2(C(=O)Nc4cc(Cl)ccc42)N(c2cc(Cl)ccc2C)C3=O)cn1 ?
## Output 3.50

## Input Now give it for COc1ncc(-c2nc3c(n2C(C)C)[C@@]2(C(=O)Nc4cc(Cl)ccc42)N(c2cccc(Cl)c2)C3=O)c(OC)n1 too.
## Output 2.86

## Input # iterate: COc1ncc(-c2nc3c(n2C(C)C)[C@@]2(C(=O)Nc4cc(Cl)ccc42)N(c2cc(Cl)ccc2C)C3=O)c(OC)n1
## Output 3.19

## Input Next record, please: COc1cc(N(C)C)ccc1-c1nc2c(n1C(C)C)[C@@]1(C(=O)Nc3cc(Cl)ccc31)N(c1cc(Cl)ccc1C)C2=O
## Output 3.98

## Input Could you do the same for COc1ccc(-c2nc3c(n2C(C)C)[C@@]2(C(=O)Nc4cc(Cl)ccc42)N(c2cc(Cl)ccc2C)C3=O)c(OC)c1 , please?
## Output 3.56

----------
measurement.description: Pharmacokinetics in ICR mice after intravenous and intragastric administration
Type: in vivo
condition.description: male, ICR, mouse, plasma, po, 5 mg/kg, ICR mice, PO 5 mg/kg, individual animals 401-403; read-out: MRT(0-t)
What MRT last was measured for each of the following?
Report only the number, with the unit h understood.

## Input Can you look up the measured MRT last of COc1nc(C2CC2)ncc1-c1nc2c(n1C(C)C)[C@@]1(C(=O)Nc3cc(Cl)ccc31)N(c1cc(Cl)cnc1C)C2=O [Example S-159] for me?
## Output 1.9

## Input Please give the result for COc1cc(OC(C)C)ncc1-c1nc2c(n1C(C)C)[C@@]1(C(=O)Nc3cc(Cl)ccc31)N(c1cc(Cl)cnc1C)C2=O [Example S-137] too.
## Output 2.28

## Input Proceed to COc1cc(C(F)(F)F)ncc1-c1nc2c(n1C(C)C)[C@@]1(C(=O)Nc3cc(Cl)ccc31)N(c1cc(Cl)ccc1C)C2=O [Example S-138]
## Output 3.56

Data credit: patent US11339171B2
